# Measurement target: UniProt:P37023
# Sequence (P37023 22-503): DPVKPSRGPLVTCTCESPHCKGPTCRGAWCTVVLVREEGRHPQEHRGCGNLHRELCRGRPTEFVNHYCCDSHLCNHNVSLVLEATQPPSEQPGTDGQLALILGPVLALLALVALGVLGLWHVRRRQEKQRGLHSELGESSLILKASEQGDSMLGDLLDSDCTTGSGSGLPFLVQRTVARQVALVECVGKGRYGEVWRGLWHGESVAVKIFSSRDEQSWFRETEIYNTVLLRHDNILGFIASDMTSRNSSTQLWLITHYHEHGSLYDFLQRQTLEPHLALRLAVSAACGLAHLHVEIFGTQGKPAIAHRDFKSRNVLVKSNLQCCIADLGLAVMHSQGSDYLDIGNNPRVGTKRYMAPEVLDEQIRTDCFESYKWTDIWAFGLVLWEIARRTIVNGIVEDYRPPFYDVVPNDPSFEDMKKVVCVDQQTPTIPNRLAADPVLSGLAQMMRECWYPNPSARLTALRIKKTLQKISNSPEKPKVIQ
# Method: TR-FRET enzymatic ALK kinase assay, ALK1
Result type: IC50 (nM)

Some entries whose results are on file:
>  <Molecule>
COc1ccc2ccccc2c1-c1cnn2cc(-c3ccc(N4[C@H](C)CNC[C@@H]4C)cc3)cnc12

>  <Val>
1310

$$$$
>  <Molecule>
O=[S+]([O-])(c1cccc(-c2cnn3cc(-c4ccc(C5CCNCC5)cc4)cnc23)c1)C1CC1

>  <Val>
480

$$$$
>  <Molecule>
NC(c1cccc(-c2cnn3cc(-c4ccc(OCCN5CCCC5)cc4)cnc23)c1)C(F)(F)F (stereo not shown)

>  <Val>
1600

$$$$

a. CC(=O)c1cccc2c(-c3cnn4cc(-c5ccc(N6[C@H](C)CNC[C@@H]6C)cc5)cnc34)cccc12
b. CS(=O)(=O)c1cccc(-c2cnn3cc(-c4ccc(CCN5CCCC(O)C5)cc4)cnc23)c1 (stereo not shown)
Prompt: Compare the recorded IC50 of a and b ; state which is larger. // respond with label for picked entry
Response: b
(b: 750 nM, a: 107 nM)
